Provide the reported pIC50 of each item.
# study.target: UniProtKB Q14164
# Sequence (Q14164 whole entry, species assumed): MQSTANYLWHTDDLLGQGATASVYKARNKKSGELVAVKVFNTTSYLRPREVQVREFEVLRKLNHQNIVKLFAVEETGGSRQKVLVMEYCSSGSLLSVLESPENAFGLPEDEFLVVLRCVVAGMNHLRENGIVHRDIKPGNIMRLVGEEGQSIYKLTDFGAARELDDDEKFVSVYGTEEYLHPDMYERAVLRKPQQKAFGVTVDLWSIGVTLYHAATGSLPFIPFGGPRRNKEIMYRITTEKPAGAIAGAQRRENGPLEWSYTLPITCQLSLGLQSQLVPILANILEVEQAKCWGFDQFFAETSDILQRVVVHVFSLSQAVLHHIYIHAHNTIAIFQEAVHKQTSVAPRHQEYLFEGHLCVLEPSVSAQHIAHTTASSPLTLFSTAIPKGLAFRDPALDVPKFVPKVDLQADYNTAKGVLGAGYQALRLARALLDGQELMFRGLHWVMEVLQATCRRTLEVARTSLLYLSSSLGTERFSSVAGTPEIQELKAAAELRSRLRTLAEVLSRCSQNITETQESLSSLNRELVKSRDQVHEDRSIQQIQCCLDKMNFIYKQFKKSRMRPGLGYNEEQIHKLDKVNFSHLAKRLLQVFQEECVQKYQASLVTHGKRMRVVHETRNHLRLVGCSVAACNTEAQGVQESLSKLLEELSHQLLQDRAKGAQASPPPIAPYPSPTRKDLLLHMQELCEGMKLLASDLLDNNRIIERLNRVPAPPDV
# procedure.summary: IKKe Biochemical Assay
# conditions.used: read-out: IKKε IC50
pIC50: −log10 of the molar value. Counter-ions that a name gives are not always drawn.

Ask: Which pIC50 is listed for CCN(C)C(=O)c1ccc(-c2cc3nccc(-c4ccc(NC5CCOCC5)c(C#N)c4)c3o2)c(OC)c1 ?
Result: > 7.00

Ask: Continue with COc1cc(C(=O)N2CC[C@@H](N(C)C)C2)ncc1-c1cc2nccc(-c3ccc(N4CC[C@H](F)C4)c(C#N)c3)c2o1
Result: > 7.00

Ask: Continue with COc1cc(C(=O)N(C)C)nnc1-c1cc2nccc(-c3ccc(OC4CCOCC4)c(C#N)c3)c2o1
Result: > 7.00

Ask: Continue with COc1cc(C(=O)N(C)CCO)cnc1-c1cc2ncc(C)c(-c3ccc(OC4CCOCC4)c(C#N)n3)c2o1 [Compound 360, hydrochloride]
Result: 6.00 to 7.00

Ask: Continue with COc1cc(C(=O)N(C)C)ccc1-c1cc2nccc(-c3cnc(NC4CCOCC4)c(C#N)c3)c2o1
Result: > 7.00

Ask: Continue with CN(C)C(=O)c1ccc(-c2cc3nccc(-c4ccc(NC5CC(C)(C)OC(C)(C)C5)c(C#N)c4)c3o2)cc1
Result: 5.30 to 6.00

Ask: Continue with CN(C)C(=O)c1ccc(-c2cc3nccc(-c4cc(F)c(NC5CCOCC5)c(C#N)c4)c3o2)nc1
Result: 6.00 to 7.00
